- Procedure details: Water solubility of compound at 25 degreeC
- Format: physicochemical
molecules and their reported solubility
Measurement label: solubility

[
  {
    "Smiles entry": "C[n+]1c(/C=C/c2ccc(O)cc2)cc(/C=C2\\Sc3ccccc3N2CCCN2CCOCC2)c2ccccc21.[I-]",
    "Obs value": "167 µM"
  },
  {
    "Smiles entry": "CC1CCN(CCCN2/C(=C/c3cc(/C=C/c4ccc(N(C)C)cc4)[n+](C)c4ccccc34)Sc3ccccc32)CC1.[I-]",
    "Obs value": "105 µM"
  },
  {
    "Smiles entry": "CC1CCN(CCCN2/C(=C/c3cc(/C=C/c4ccc(O)cc4)[n+](C)c4ccccc34)Sc3ccccc32)CC1.[I-]",
    "Obs value": "147 µM"
  },
  {
    "Smiles entry": "CN(C)c1ccc(/C=C/c2cc(/C=C3\\Sc4ccccc4N3CCCN3CCOCC3)c3ccccc3[n+]2C)cc1.[I-]",
    "Obs value": "122 µM"
  },
  {
    "Smiles entry": "CSc1ccc(/C=C/c2cc(/C=C3\\Sc4ccccc4N3CCCN3CCC(C)CC3)c3ccccc3[n+]2C)cc1.[I-]",
    "Obs value": "98.4 µM"
  },
  {
    "Smiles entry": "CC1CCN(CCCN2/C(=C/c3cc(/C=C/c4ccc(N(c5ccccc5)c5ccccc5)cc4)[n+](C)c4ccccc34)Sc3ccccc32)CC1.[I-]",
    "Obs value": "77.2 µM"
  },
  {
    "Smiles entry": "C[n+]1c(/C=C/c2ccc(C#N)cc2)cc(/C=C2\\Sc3ccccc3N2CCCN2CCOCC2)c2ccccc21.[I-]",
    "Obs value": "83 µM"
  },
  {
    "Smiles entry": "C[n+]1c(/C=C/c2ccc(N(c3ccccc3)c3ccccc3)cc2)cc(/C=C2\\Sc3ccccc3N2CCCN2CCOCC2)c2ccccc21.[I-]",
    "Obs value": "70.7 µM"
  },
  {
    "Smiles entry": "CC1CCN(CCCN2/C(=C/c3cc(/C=C/c4ccc(C#N)cc4)[n+](C)c4ccccc34)Sc3ccccc32)CC1.[I-]",
    "Obs value": "82.7 µM"
  },
  {
    "Smiles entry": "CSc1ccc(/C=C/c2cc(/C=C3\\Sc4ccccc4N3CCCN3CCOCC3)c3ccccc3[n+]2C)cc1.[I-]",
    "Obs value": "87.3 µM"
  }
]

* * *

- Tgt: Quadruplex DNA
- Procedure details: Binding affinity to c-myc promoter G-quadruplex DNA Pu27 (unknown origin) assessed as dissociation constant by isothermal titration calorimetric analysis
- Format: nucleic-acid assay
pKd: −log10 of the molar value.

[
  {
    "Smiles entry": "CN(C)c1ccc(/C=C/c2cc(/C=C3\\Sc4ccccc4N3CCCN3CCOCC3)c3ccccc3[n+]2C)cc1.[I-]",
    "pKd": 5.49
  }
]

* * *

Item-by-item account of pIC50
- Tested on: HeLa
- Procedure details: Antiproliferative activity against human HeLa cells assessed as reduction in cell viability […] by MTT assay
- Type: functional, cell-based
pIC50: −log10 of the molar value.

[
  {
    "Smiles entry": "CN(C)c1ccc(/C=C/c2cc(/C=C3\\Sc4ccccc4N3CCCN3CCOCC3)c3ccccc3[n+]2C)cc1.[I-]",
    "pIC50": 4.79
  },
  {
    "Smiles entry": "CSc1ccc(/C=C/c2cc(/C=C3\\Sc4ccccc4N3CCCN3CCOCC3)c3ccccc3[n+]2C)cc1.[I-]",
    "pIC50": 4.04
  },
  {
    "Smiles entry": "CC1CCN(CCCN2/C(=C/c3cc(/C=C/c4ccc(N(C)C)cc4)[n+](C)c4ccccc34)Sc3ccccc32)CC1.[I-]",
    "pIC50": 4.67
  }
]
